biological target: Human PDGFRβ, cytoplasmic domain (GST-PDGFRβ) (Homo sapiens)
pIC50: −log10 of the molar value.

{"smiles str": "COc1cccc2ncc(N[C@@H](C)c3cccc(NC(=O)c4cncc(C)c4)c3)cc12", "pIC50": "> 6.52"}
{"smiles str": "Cc1n[nH]c2ncc(N[C@@H](C)c3cccc(NC(=O)c4cnn(CCF)c4)c3)nc12", "pIC50": "> 6.52"}
{"smiles str": "Cc1cncc(C(=O)Nc2cccc([C@H](C)Nc3cnc4[nH]ccc4n3)c2)c1", "pIC50": "> 6.52"}
{"smiles str": "CCn1cc2ncc(N[C@@H](C)c3cccc(NC(=O)c4cnc(OC)s4)c3)nc2n1", "pIC50": "≤ 6.00"}
{"smiles str": "CCOc1ccc(C(=O)Nc2cccc([C@H](C)Nc3cnc4cnn(C)c4n3)c2)cc1C", "pIC50": "> 6.52"}
{"smiles str": "CCn1cc2ncc(N[C@@H](C)c3cccc(NC(=O)c4cnc(C5CC5)c(C)c4)c3)nc2n1", "pIC50": "> 6.52"}
{"smiles str": "CCn1cc2ncc(N[C@@H](C)c3cccc(NC(=O)c4cnc(C(F)F)c(C)c4)c3)nc2n1", "pIC50": "> 6.52"}
{"smiles str": "COc1ncc(C(=O)Nc2cccc([C@H](C)Nc3cnc4cnn(C)c4n3)c2)cc1C(F)(F)F", "pIC50": "> 6.52"}
{"smiles str": "CCn1cc2ncc(N[C@@H](C)c3cccc(NC(=O)c4ccc(CN5CC6(COC6)C5)c(C(F)F)c4)c3)nc2n1", "pIC50": "> 6.52"}
{"smiles str": "CSc1cc(C(=O)Nc2cccc([C@H](C)Nc3cnc4cnn(C)c4n3)c2)ccc1Cl", "pIC50": "> 6.52"}
{"smiles str": "CCn1cc2ncc(N[C@@H](C)c3cc(NC(=O)c4cnc(N5CCN(C)CC5)c(C)c4)ccc3C)nc2n1", "pIC50": "> 6.52"}
{"smiles str": "CCn1cc2ncc(N[C@@H](C)c3cccc(NC(=O)c4cnc5[nH]ncc5c4)c3)nc2n1", "pIC50": "≤ 6.00"}
{"smiles str": "Cc1cncc(C(=O)Nc2cccc([C@H](C)Nc3cnn4ccccc34)c2)c1", "pIC50": "≤ 6.00"}
{"smiles str": "CCn1cc2ncc(N[C@@H](C)c3cccc(NC(=O)c4cnc(CO)s4)c3)nc2n1", "pIC50": "≤ 6.00"}
{"smiles str": "Cc1cncc(C(=O)Nc2cccc([C@H](C)Nc3cnc4cc(F)c(F)cc4c3)c2)c1", "pIC50": "6.00 to 6.52"}
{"smiles str": "Cc1cncc(C(=O)Nc2cccc([C@H](C)Nc3cnc4ccccc4c3)c2)c1", "pIC50": "6.00 to 6.52"}

###

molecular target: Human PDGFRα, cytoplasmic domain (GST-PDGFRα) (Homo sapiens, UniProt P16234); test: Human PDGFRα biochemical inhibition assay (off-chip Mobility Shift Assay)
Sequence (P16234 550-1089 T674I): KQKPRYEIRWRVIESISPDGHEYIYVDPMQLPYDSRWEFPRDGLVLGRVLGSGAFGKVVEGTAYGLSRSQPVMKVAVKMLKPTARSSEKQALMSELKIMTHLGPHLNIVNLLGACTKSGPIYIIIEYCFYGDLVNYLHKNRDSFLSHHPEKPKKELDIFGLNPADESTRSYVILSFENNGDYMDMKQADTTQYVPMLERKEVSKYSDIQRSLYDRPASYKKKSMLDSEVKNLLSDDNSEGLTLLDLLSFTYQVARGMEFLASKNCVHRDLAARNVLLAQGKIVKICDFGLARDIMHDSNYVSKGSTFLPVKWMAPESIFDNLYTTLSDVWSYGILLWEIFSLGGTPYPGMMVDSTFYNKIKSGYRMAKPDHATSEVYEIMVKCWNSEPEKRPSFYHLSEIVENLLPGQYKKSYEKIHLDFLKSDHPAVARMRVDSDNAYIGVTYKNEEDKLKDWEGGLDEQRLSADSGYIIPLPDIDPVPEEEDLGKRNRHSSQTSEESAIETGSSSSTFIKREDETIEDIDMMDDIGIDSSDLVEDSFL
Listed compounds paired with reported IC50
readout: IC50

{"compound": "CCn1cc2ncc(N[C@@H](C)c3cccc(NC(=O)c4cnc(CN5CC6(COC6)C5)c(F)c4)c3)nc2n1 [Compound 500]", "reported": "≥ 1000 nM"}
{"compound": "CCn1cc2ncc(N[C@@H](C)c3cccc(NC(=O)Cc4cccnc4)c3)nc2n1 [Compound 624]", "reported": "300 to 1000 nM"}
{"compound": "CCn1cc2ncc(N[C@@H](C)c3cc(NC(=O)c4cnc(C(F)(F)F)s4)ccc3F)nc2n1 [Compound 308]", "reported": "< 300 nM"}
{"compound": "CCn1cc2ncc(N[C@@H](C)c3cccc(NC(=O)c4ccc(CN5CCCC5)c(C)c4)c3)nc2n1 [Compound 404]", "reported": "< 300 nM"}
{"compound": "CCn1cc2ncc(N[C@@H](C)c3cccc(NC(=O)Cc4cc(C)ccn4)c3)nc2n1 [Compound 678]", "reported": "< 300 nM"}
{"compound": "CCn1cc2ncc(N[C@@H](C)c3cc(NC(=O)c4ccc(CN5CCCC5)c(C)c4)ccc3F)nc2n1 [Compound 470]", "reported": "< 300 nM"}
{"compound": "CCn1cc2ncc(N[C@@H](C)c3cc(NC(=O)c4cnn(CCF)c4)ccc3F)nc2n1 [Compound 311]", "reported": "< 300 nM"}
{"compound": "CCn1cc2ncc(N[C@@H](C)c3cccc(NC(=O)c4ccc(C#N)c(C)c4)c3)nc2n1 [Compound 331]", "reported": "< 300 nM"}

###

target: Human PDGFRβ, cytoplasmic domain (GST-PDGFRβ) (Homo sapiens, UniProt P09619)
Sequence (P09619 with tags, fused parts or gaps): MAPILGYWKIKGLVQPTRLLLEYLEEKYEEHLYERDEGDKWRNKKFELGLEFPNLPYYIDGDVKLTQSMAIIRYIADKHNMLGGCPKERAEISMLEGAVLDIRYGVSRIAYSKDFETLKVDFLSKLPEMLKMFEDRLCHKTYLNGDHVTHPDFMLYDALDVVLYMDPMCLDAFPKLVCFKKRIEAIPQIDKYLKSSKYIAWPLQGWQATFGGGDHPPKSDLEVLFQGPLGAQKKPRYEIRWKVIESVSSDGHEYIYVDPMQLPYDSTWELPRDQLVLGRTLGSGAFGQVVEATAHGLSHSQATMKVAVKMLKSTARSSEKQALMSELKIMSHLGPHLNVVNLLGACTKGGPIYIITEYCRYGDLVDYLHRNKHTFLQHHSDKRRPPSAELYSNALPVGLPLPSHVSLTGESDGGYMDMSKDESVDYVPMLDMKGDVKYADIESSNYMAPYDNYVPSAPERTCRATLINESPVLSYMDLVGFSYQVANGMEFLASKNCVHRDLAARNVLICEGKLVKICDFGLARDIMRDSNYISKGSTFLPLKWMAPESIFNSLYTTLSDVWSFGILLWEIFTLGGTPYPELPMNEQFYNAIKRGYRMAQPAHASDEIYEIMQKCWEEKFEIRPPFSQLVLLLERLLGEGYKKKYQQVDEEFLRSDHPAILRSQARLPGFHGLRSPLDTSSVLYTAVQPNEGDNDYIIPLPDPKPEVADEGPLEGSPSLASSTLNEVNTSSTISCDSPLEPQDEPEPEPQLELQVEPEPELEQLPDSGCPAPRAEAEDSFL

{"compound": "Cc1cncc(C(=O)Nc2cccc([C@H](C)Nc3cnc4ccc(C5CC5)cc4n3)c2)c1 [Compound 41]", "IC50": "< 300 nM"}
{"compound": "CCn1cc2ncc(N[C@@H](C)c3cccc(NC(=O)c4cnn(CCF)c4)c3)nc2n1 [Compound 298]", "IC50": "300 to 1000 nM"}
{"compound": "C[C@H](Nc1cnc2cnn(C)c2n1)c1cccc(NC(=O)c2cnn(C)c2)c1 [Compound 146]", "IC50": "≥ 1000 nM"}
{"compound": "C[C@H](Nc1cnc2cnn(C)c2n1)c1cccc(NC(=O)c2cncc(S(C)(=O)=O)c2)c1 [Compound 227]", "IC50": "< 300 nM"}
{"compound": "C[C@H](Nc1cnc2cnn(C)c2n1)c1cccc(NC(=O)c2ccc(Cl)c(F)c2)c1 [Compound 191]", "IC50": "< 300 nM"}
{"compound": "CCn1cc2ncc(N[C@@H](C)c3cc(NC(=O)Cc4ccc(C(F)(F)F)cn4)ccc3F)nc2n1 [Compound 654]", "IC50": "≥ 1000 nM"}
{"compound": "CCn1cc2ncc(N[C@@H](C)c3cccc(NC(=O)c4cnc(-n5ccnc5)c(C)c4)c3)nc2n1 [Compound 334]", "IC50": "< 300 nM"}
{"compound": "CC(C)c1cc(C(=O)Nc2cccc([C@H](C)Nc3cnc4cnn(C)c4n3)c2)on1 [Compound 145]", "IC50": "< 300 nM"}
{"compound": "Cc1cc2ncc(N[C@@H](C)c3cccc(NC(=O)c4ccc(OC(F)F)nc4)c3)nc2s1 [Compound 608]", "IC50": "< 300 nM"}
{"compound": "Cc1cc(C(=O)Nc2cccc([C@H](C)Nc3cnc4[nH]cc(-c5cnn(C)c5)c4n3)c2)cnc1N1CCCC1 [Compound 577]", "IC50": "< 300 nM"}
{"compound": "CCn1cc2ncc(N[C@@H](C)c3cccc(NC(=O)c4cncc(OC)c4)c3)nc2n1 [Compound 279]", "IC50": "300 to 1000 nM"}
{"compound": "CCn1cc2ncc(N[C@@H](C)c3cccc(NC(=O)Cc4cccc(Cl)c4)c3)nc2n1 [Compound 621]", "IC50": "< 300 nM"}
{"compound": "C[C@H](Nc1cnc2cnn(C)c2n1)c1cc(NC(=O)c2ccc(C3CC3)nc2)ccc1F [Compound 201]", "IC50": "< 300 nM"}
{"compound": "Cc1cncc(C(=O)Nc2cccc([C@H](C)Nc3cnn4cc(-c5cnn(C)c5)ccc34)c2)c1 [Compound 746]", "IC50": "< 300 nM"}
{"compound": "C[C@H](Nc1cnc2cnn(C)c2n1)c1cccc(NC(=O)c2cccc(S(C)(=O)=O)c2)c1 [Compound 226]", "IC50": "< 300 nM"}
{"compound": "CCn1cc2ncc(N[C@@H](C)c3cccc(NC(=O)c4cnc5[nH]nc(C)c5c4)c3)nc2n1 [Compound 61]", "IC50": "≥ 1000 nM"}

###

Listed molecules paired with reported IC50
molecular target: Human PDGFRβ, cytoplasmic domain (GST-PDGFRβ) (Homo sapiens, UniProt P09619)

{"molecule": "Cc1cncc(C(=O)Nc2cccc(CNc3cnc4ccccc4n3)c2)c1 [Compound 31]", "IC50": "< 300 nM"}
{"molecule": "CCn1cc2ncc(N[C@@H](C)c3cccc(NC(=O)c4ccc(CN5CC6(COC6)C5)c(C)c4)c3)nc2n1 [Compound 414]", "IC50": "< 300 nM"}
{"molecule": "CCOc1ccc(C(=O)Nc2cccc([C@H](C)Nc3cnc4[nH]cc(C)c4n3)c2)cn1 [Compound 570]", "IC50": "< 300 nM"}
{"molecule": "CCn1cc2ncc(N[C@@H](C)c3cccc(NC(=O)c4ccc(CN5CCN(C)CC5)c(C5CC5)c4)c3)nc2n1 [Compound 502]", "IC50": "< 300 nM"}
{"molecule": "Cc1cc(C(=O)Nc2cccc([C@H](C)Nc3cnc4cnn(C)c4n3)c2)cnc1C(F)(F)F [Compound 125]", "IC50": "< 300 nM"}
{"molecule": "COCCn1ccc2ncc(N[C@@H](C)c3cccc(NC(=O)c4cncc(C)c4)c3)nc21 [Compound 84]", "IC50": "300 to 1000 nM"}
{"molecule": "CC(C)n1cc(C(=O)Nc2cccc([C@H](C)Nc3cnc4cnn(C)c4n3)c2)cn1 [Compound 147]", "IC50": "< 300 nM"}
{"molecule": "Cc1cncc(C(=O)Nc2cccc([C@H](C)Nc3cnc4cnn(C5COC5)c4n3)c2)c1 [Compound 179]", "IC50": "≥ 1000 nM"}
{"molecule": "Cc1cc(C(=O)Nc2cccc([C@H](C)Nc3cnc4cnn(C)c4n3)c2)cnc1N1CC2(COC2)C1 [Compound 259]", "IC50": "< 300 nM"}
{"molecule": "CCn1cc2ncc(N[C@@H](C)c3cccc(NC(=O)c4cnc(C#N)c(C)c4)c3)nc2n1 [Compound 289]", "IC50": "300 to 1000 nM"}
{"molecule": "CCn1cc2ncc(N[C@@H](C)c3cc(NC(=O)c4cnc(OC)c(C)c4)ccc3F)nc2n1 [Compound 317]", "IC50": "< 300 nM"}
{"molecule": "CC(C)c1cc(C(=O)Nc2cccc([C@H](C)Nc3cnc4cnn(C)c4n3)c2)no1 [Compound 142]", "IC50": "< 300 nM"}
{"molecule": "Cc1cc(C(=O)Nc2cccc([C@H](C)Nc3cnc4cnn(C)c4n3)c2)ccc1C#N [Compound 193]", "IC50": "< 300 nM"}
{"molecule": "Cc1cc(C(=O)Nc2cccc([C@H](C)Nc3cnc4cnn(C)c4n3)c2)ccc1C(=O)OCC(C)C [Compound 263]", "IC50": "300 to 1000 nM"}
{"molecule": "CCn1cc2ncc(N[C@@H](C)c3cc(NC(=O)Cc4ccc(C5CC5)cn4)ccc3F)nc2n1 [Compound 655]", "IC50": "≥ 1000 nM"}
{"molecule": "Cc1cc(C(=O)Nc2cccc([C@H](C)Nc3cnc4cnn(C)c4n3)c2)cnc1OC(C)C [Compound 248]", "IC50": "< 300 nM"}
